Tested on: kinases of Table 6 on Myelin Basic Protein (MBP)
Assay: Kinase assay using MBP substrate, ProQ Diamond stain (Table 6)
Assay type: biochemical
Settings: kinase printed on MBP-coated slide; 20 uM ATP, 30° C.; ProQ Diamond Microarray Stain; graded Strong/Weak/Negative
Reported Endpoint: MBP Kinase Activity

Molecule | MBP Kinase Activity
MAP2K6(MKK6) (protein, left off: small tags and cut ends) MSQSKGKKRNPGLKIPKEAFEQPQTSSTPPRDLDSKACISIGNQNFEVKADDLEPIMELGRGAYGVVEKMRHVPSGQIMAVKRIRATVNSQEQKRLLMDLDISMRTVDCPFTVTFYGALFREGDVWICMELMDTSLDKFYKQVIDKGQTIPEDILGKIAVSIVKALEHLHSKLSVIHRDVKPSNVLINALGQVKMCDFGISGYLVDSVAKTIDAGCKPYMAPERINPELNQKGYSVKSDIWSLGITMIELAILRFPYDSWGTPFQQLKQVVEEPSPQLPADKFSAEFVDFTSQCLKKNSKERPTYPELMQHPFFTLHESKGTDVASFVKLILGD | Weak
INSRR (protein, left off: a dimerising Fc or GST) YGKKRNRTLYASVNPEYFSASDMYVPDEWEVPREQISIIRELGQGSFGMVYEGLARGLEAGEESTPVALKTVNELASPRECIEFLKEASVMKAFKCHHVVRLLGVVSQGQPTLVIMELMTRGDLKSHLRSLRPEAENNPGLPQPALGEMIQMAGEIADGMAYLAANKFVHRDLAARNCMVSQDFTVKIGDFGMTRDVYETDYYRKGGKGLLPVRWMAPESLKDGIFTTHSDVWSFGVVLWEIVTLAEQPYQGLSNEQVLKFVMDGGVLEELEGCPLQLQELMSRCWQPNPRLRPSFTHILDSIQEELRPSFRLLSFYYSPECRGARGSLPTTDAEPDSSPTPRDCSPQNGGPGH | Negative
TAOK2(TAO1) (protein, left off: a dimerising Fc or GST) MPAGGRAGSLKDPDVAELFFKDDPEKLFSDLREIGHGSFGAVYFARDVRNSEVVAIKKMSYSGKQSNEKWQDIIKEVRFLQKLRHPNTIQYRGCYLREHTAWLVMEYCLGSASDLLEVHKKPLQEVEIAAVTHGALQGLAYLHSHNMIHRDVKAGNILLSEPGLVKLGDFGSASIMAPANSFVGTPYWMAPEVILAMDEGQYDGKVDVWSLGITCIELAERKPPLFNMNAMSALYHIAQNESPVLQSGHWSEYFRNFVDSCLQKIPQDRPTSEVLLKHRFVLRERPPTVIMDLIQRTKDAVRELDNLQYRKMKK | Strong
PRKX (protein, left off: a dimerising Fc or GST) MEAPGLAQAAAAESDSRKVAEETPDGAPALCPSPEALSPEPPVYSLQDFDTLATVGTGTFGRVHLVKEKTAKHFFALKVMSIPDVIRLKQEQHVHNEKSVLKEVSHPFLIRLFWTWHDERFLYMLMEYVPGGELFSYLRNRGRFSSTTGLFYSAEIICAIEYLHSKEIVYRDLKPENILLDRDGHIKLTDFGFAKKLVDRTWTLCGTPEYLAPEVIQSKGHGRAVDWWALGILIFEMLSGFPPFFDDNPFGIYQKILAGKIDFPRHLDFHVKDLIKKLLVVDRTRRLGNMKNGANDVKHHRWFRSVDWEAVPQRKLKPPIVPKIAGDGDTSNFETYPENDWDTAAPVPQKDLEIFKNF | Negative
MAP4K4(HGK) (protein, left off: a dimerising Fc or GST) MANDSPAKSLVDIDLSSLRDPAGIFELVEVVGNGTYGQVYKGRHVKTGQLAAIKVMDVTEDEEEEIKLEINMLKKYSHHRNIATYYGAFIKKSPPGHDDQLWLVMEFCGAGSITDLVKNTKGNTLKEDWIAYISREILRGLAHLHIHHVIHRDIKGQNVLLTENAEVKLVDFGVSAQLDRTVGRRNTFIGTPYWMAPEVIACDENPDATYDYRSDLWSCGITAIEMAEGAPPLCDMHPMRALFLIPRNPPPRLKSKKWSKKFFSFIEGCLVKNYMQRPSTEQLLKHPFIRDQPNERQVRIQLKDHIDRTRKKRGEKDETEYEYSGSEE | Strong
FER (protein, left off: a dimerising Fc or GST) KSGVVLLNPIPKDKKWILSHEDVILGELLGKGNFGEVYKGTLKDKTSVAVKTCKEDLPQELKIKFLQEAKILKQYDHPNIVKLIGVCTQRQPVYIIMELVSGGDFLTFLRRKKDELKLKQLVKFSLDAAAGMLYLESKNCIHRDLAARNCLVGENNVLKISDFGMSRQEDGGVYSSSGLKQIPIKWTAPEALNYGRYSSESDVWSFGILLWETFSLGVCPYPGMTNQQAREQVERGYRMSAPQHCPEDISKIMMKCWDYKPENRPKFSELQKELTIIKRKLT | Negative
MAP2K3(MEK3) (protein, left off: a dimerising Fc or GST) MSKPPAPNPTPPRNLDSRTFITIGDRNFEVEADDLVTISELGRGAYGVVEKVRHAQSGTIMAVKRIRATVNSQEQKRLLMDLDINMRTVDCFYTVTFYGALFREGDVWICMELMDTSLDKFYRKVLDKNMTIPEDILGEIAVSIVRALEHLHSKLSVIHRDVKPSNVLINKEGHVKMCDFGISGYLVDSVAKTMDAGCKPYMAPERINPELNQKGYNVKSDVWSLGITMIEMAILRFPYESWGTPFQQLKQVVEEPSPQLPADRFSPEFVDFTAQCLRKNPAERMSYLELMEHPFFTLHKTKKTDIAAFVKEILGEDS | Negative

We next turn to a different molecule, shown below.
[ask] Param item = CSNK2A2 (protein, left off: a dimerising Fc or GST) MPGPAAGSRARVYAEVNSLRSREYWDYEAHVPSWGNQDDYQLVRKLGRGKYSEVFEAINITNNERVVVKILKPVKKKKIKREVKILENLRGGTNIIKLIDTVKDPVSKTPALVFEYINNTDFKQLYQILTDFDIRFYMYELLKALDYCHSKGIMHRDVKPHNVMIDHQQKKLRLIDWGLAEFYHPAQEYNVRVASRYFKGPELLVDYQMYDYSLDMWSLGCMLASMIFRREPFFHGQDNYDQLVRIAKVLGTEELYGYLKKYHIDLDPHFNDILGQHSRKRWENFIHSENRHLVSPEALDLLDKLLRYDHQQRLTAKEAMEHPYFYPVVKEQSQPCADNAVLSSGLTAAR ; retrieve measured MBP Kinase Activity.
[reply] Negative
